# Measured On: human ether-à-go-go-related gene (hERG) potassium channel (human, UniProt Q12809)
# Sequence (Q12809 whole entry, looked up): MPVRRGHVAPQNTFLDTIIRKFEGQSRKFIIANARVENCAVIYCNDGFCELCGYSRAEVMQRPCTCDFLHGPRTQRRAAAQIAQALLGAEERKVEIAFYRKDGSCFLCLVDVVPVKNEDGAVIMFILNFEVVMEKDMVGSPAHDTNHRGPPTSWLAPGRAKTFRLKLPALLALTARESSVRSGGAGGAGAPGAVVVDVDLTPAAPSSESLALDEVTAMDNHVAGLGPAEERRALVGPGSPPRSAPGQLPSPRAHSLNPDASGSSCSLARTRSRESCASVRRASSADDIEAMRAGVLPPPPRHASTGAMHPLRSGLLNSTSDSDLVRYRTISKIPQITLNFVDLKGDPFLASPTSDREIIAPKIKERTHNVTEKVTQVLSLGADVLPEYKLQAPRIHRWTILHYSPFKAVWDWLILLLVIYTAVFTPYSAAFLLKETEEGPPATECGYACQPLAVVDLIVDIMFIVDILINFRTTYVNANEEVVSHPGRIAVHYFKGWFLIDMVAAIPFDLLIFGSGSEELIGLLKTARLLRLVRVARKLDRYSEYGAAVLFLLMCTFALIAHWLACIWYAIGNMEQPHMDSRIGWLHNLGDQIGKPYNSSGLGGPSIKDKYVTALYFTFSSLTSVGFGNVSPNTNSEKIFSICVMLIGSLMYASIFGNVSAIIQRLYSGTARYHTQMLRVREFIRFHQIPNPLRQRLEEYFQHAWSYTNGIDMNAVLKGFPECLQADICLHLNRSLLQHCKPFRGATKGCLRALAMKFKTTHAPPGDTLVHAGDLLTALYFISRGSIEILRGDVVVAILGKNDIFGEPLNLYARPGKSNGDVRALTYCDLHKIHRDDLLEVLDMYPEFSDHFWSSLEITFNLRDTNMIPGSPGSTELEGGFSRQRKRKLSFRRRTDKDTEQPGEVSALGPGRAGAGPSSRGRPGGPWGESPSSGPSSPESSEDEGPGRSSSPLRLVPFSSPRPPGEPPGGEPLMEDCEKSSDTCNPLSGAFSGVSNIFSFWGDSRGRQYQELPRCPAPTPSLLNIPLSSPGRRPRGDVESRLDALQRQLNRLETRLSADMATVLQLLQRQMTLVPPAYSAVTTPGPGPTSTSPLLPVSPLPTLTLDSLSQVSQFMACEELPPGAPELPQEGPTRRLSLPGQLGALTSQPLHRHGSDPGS
# Method Summary: primary screen, population patch clamp on CHO cells stably expressing hERG; higher = less effect of the substance
About 14,000 (4.5%) of roughly 310,000 compounds showed an effect of 50% or more. The effect is printed as a negative number. For the sample, strong results were picked, then their nearest neighbours and some compounds at random.
Reported Endpoint: hERG current change (%, negative = inhibition) at 10uM (%)
Numeric only. Scale: %

> print(dat)
                                   compound  reported.value
1  S=C(NC1CCCCC1)NC1CC2CCC(C1)N2Cc1ccccc1 (centres unmarked)           -33.4
2  CCN(CC)S(=O)(=O)c1cc(C(=O)Nc2ccncc2)ccc1Cl           -66.3
3  CC(C)c1ccc(NC(=S)NC2CCN(Cc3ccccc3)CC2)cc1           -17.4
4  S=C(Nc1ccc(Cl)cc1)NC1CC2CCC(C1)N2Cc1ccccc1 (centres unmarked)           -66.1
5    CCc1ccc(NC(=S)NC2CCN(Cc3ccccc3)CC2)cc1           -36.9

Problem: Report hERG current change (%, negative = inhibition) at 10uM on human ether-à-go-go-related gene (hERG) potassium channel (human, UniProt Q12809) for this entry: "S=C(Nc1ccc(Cl)cc1)NC1CCN(Cc2ccccc2)CC1"
Result: -39.9

Problem: Output reported hERG current change (%, negative = inhibition) at 10uM of the compound CCNC(=S)NC1CC2CCCC(C1)N2Cc1ccc(C)cc1 (centres unmarked) on human ether-à-go-go-related gene (hERG) potassium channel (human, UniProt Q12809).
Result: -48.1

Problem: Please report the measured hERG current change (%, negative = inhibition) at 10uM for CNC(=S)NC1CC2CCCC(C1)N2Cc1ccc(C)cc1 (centres unmarked) tested on human ether-à-go-go-related gene (hERG) potassium channel (human, UniProt Q12809).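 Further: peak tail current of the secondary pulse compared with the same well before compound.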
Result: -38.9

All figures here come from paper PMC4336329.
